- assay_summary: Octanol-water partition coefficient, logP of the compound
- Assay type: physicochemical
readout_kind: logP
Could you respond with only the numeric value?

// query State its logP: O=C1c2cccc3c(Sc4ccc([N+](=O)[O-])cc4)ccc(c23)C(=O)N1CCN1CCCC1
// result 4.26

---

- study_target: Serine/threonine-protein kinase PLK1 (Homo sapiens)
- Sequence (P53350 whole entry): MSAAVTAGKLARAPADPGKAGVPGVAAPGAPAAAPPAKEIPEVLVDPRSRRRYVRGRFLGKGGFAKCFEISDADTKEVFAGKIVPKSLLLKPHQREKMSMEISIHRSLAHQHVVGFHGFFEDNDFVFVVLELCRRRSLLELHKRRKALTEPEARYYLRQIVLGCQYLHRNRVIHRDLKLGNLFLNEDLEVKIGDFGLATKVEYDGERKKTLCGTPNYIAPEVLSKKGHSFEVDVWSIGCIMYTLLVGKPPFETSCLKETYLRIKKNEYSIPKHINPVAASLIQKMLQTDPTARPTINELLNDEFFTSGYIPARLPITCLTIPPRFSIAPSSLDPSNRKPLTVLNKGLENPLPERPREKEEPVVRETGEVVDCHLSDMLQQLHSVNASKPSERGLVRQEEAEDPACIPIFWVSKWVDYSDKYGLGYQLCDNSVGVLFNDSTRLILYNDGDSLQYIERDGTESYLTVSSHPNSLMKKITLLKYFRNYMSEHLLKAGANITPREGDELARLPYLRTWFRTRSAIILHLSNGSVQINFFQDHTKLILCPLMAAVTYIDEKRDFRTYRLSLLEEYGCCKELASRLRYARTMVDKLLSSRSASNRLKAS
- assay_summary: Binding affinity to recombinant PLK1 (unknown origin) assessed as dissociation constant by SPR analysis
pKd: −log10 of the molar value.
pKd below 5 gives 0; pKd at or above it gives 1.

Past entries and their recorded results:
- molecule: "O=C1c2cccc3c(S(=O)(=O)NCc4ccccc4)ccc(c23)C(=O)N1CCN1CCCC1"
  study_target: "Serine/threonine-protein kinase PLK1 (Homo sapiens)"
  class_assignment: 0
- molecule: "CN(C)CCN1C(=O)c2cccc3c(S(=O)(=O)NCc4ccccc4)ccc(c23)C1=O"
  study_target: "Serine/threonine-protein kinase PLK1 (Homo sapiens)"
  class_assignment: 0
- molecule: "COc1ccc(CNS(=O)(=O)c2ccc3c4c(cccc24)C(=O)N(CCN2CCCC2)C3=O)cc1"
  study_target: "Serine/threonine-protein kinase PLK1 (Homo sapiens)"
  class_assignment: 0
- molecule: "CC[C@@H]1C(=O)N(C)c2cnc(Nc3ccc(C(=O)N[C@H]4CC[C@H](N5CCN(CC6CC6)CC5)CC4)cc3OC)nc2N1C(C)C [VOLASERTIB]"
  study_target: "Serine/threonine-protein kinase PLK1 (Homo sapiens)"
  class_assignment: 1

// query Can Cc1ccc(CNS(=O)(=O)c2ccc3c4c(cccc24)C(=O)N(CCN(C)C)C3=O)cc1 be said to have pKd at or above 5?
// result 0

// query Does O=C1c2cccc3c(S(=O)(=O)NCc4ccccc4)ccc(c23)C(=O)N1CCN1CCCCC1 have a reported pKd of at least 5?
// result 1

// query Assess whether reported pKd for CN(C)CCN1C(=O)c2cccc3c(S(=O)(=O)NCc4ccc(C(F)(F)F)cc4)ccc(c23)C1=O sits at 5 or higher.
// result 1

// query Is it the case that O=C1c2cccc3c(Sc4ccc([N+](=O)[O-])cc4)ccc(c23)C(=O)N1CCN1CCCC1 has pKd reaching or exceeding 5?
// result 0

// query Say whether O=C1c2cccc3c(S(=O)(=O)NCc4ccc(C(F)(F)F)cc4)ccc(c23)C(=O)N1CCN1CCCCC1 shows pKd of 5 or more.
// result 1

// query Check if pKd >= 5 (inclusive). Item: O=C1c2cccc3c(S(=O)(=O)NCc4ccc(F)cc4)ccc(c23)C(=O)N1CCN1CCCC1
// result 1

// query Please check the record Cc1ccc(CNS(=O)(=O)c2ccc3c4c(cccc24)C(=O)N(CCN2CCCCC2)C3=O)cc1 and state if its pKd is at or above 5.
// result 0

// query State whether the measured pKd reaches 5, counting equality as reaching it, for CN(C)CCN1C(=O)c2cccc3c(S(=O)(=O)NCc4cccc(F)c4)ccc(c23)C1=O
// result 0

// query Record O=C1c2cccc3c(S(=O)(=O)NCc4ccc(F)cc4)ccc(c23)C(=O)N1CCN1CCCCC1 ; criterion: pKd no lower than 5. Met?
// result 1

// provenance: ChEMBL document CHEMBL5550126
